target: RARγ (Homo sapiens); construct: % Efficiency γ; other: percentage of maximum compared to standard TTNPB; assay: chimeric receptor transactivation assay, RARγ; settings: chimeric receptor transactivation; read-out: RAR EC50 γ
Sequence (P13631 185-454 limits assumed): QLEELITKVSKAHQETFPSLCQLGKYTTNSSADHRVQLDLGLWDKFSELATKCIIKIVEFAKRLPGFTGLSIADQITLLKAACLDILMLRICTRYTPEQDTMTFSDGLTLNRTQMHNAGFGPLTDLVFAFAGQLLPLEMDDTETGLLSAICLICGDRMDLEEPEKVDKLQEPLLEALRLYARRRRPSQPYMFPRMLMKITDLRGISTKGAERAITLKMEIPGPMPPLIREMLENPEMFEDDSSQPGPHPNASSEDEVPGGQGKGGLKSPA
pEC50: −log10 of the molar value.
measured-metric: pEC50

structure-notation: CC1=CCC(C)(C)c2cc(C(/C=C/c3ccc(C(=O)O)cc3)=N\O)ccc21
measured-metric: pEC50
measured-number: 8.40

A = CC1(C)CC(C)(C)c2cc(C(C=Cc3ccc(C(=O)O)cc3F)=NO)ccc21
B = CC1(C)CCSc2ccc(C(/C=C/c3ccc(C(=O)O)cc3F)=N\O)cc21
Given A and given B , which shows the smaller recorded pEC50? Reply briefly: the label of your chosen item.
B

* * *

target: UniProt P10826; test: chimeric receptor transactivation assay, RARβ; conditions: chimeric receptor transactivation; read-out: RAR EC50 β
pEC50: −log10 of the molar value.
measured-metric: pEC50

compound: CC1(C)CC(C)(C)c2cc(C(C=Cc3ccc(C(=O)O)cc3F)=NO)ccc21
pEC50: 6.94

compound: CC1(C)CC(C)(C)c2cc(C(C=Cc3ccc(C(=O)O)cc3)=NO)ccc21 [drawing 31]
pEC50: 7.03

compound: CC1(C)CC(C)(C)c2cc(C(C=Cc3ccc(C(=O)O)cc3)=NO)ccc21 [drawing 30]
pEC50: 7.08

* * *

biological target: RARα (Homo sapiens, UniProt P10276); experiment: chimeric receptor transactivation assay, RARα; details: chimeric receptor transactivation; read-out: RAR EC50 α
Sequence (P10276 183-417 limits assumed): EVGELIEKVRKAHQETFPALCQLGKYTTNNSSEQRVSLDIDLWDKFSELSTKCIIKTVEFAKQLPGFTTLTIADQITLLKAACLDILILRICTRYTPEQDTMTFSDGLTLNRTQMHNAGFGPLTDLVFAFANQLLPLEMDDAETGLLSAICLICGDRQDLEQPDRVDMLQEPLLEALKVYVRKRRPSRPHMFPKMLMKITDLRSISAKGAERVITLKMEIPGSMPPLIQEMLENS
measured-metric: EC50

structure-notation: CC1=CCC(C)(C)c2cc(C(/C=C/c3ccc(C(=O)O)cc3F)=N\O)ccc21
target-under-test: RARα (Homo sapiens, UniProt P10276)
EC50: > 1000 nM
//
structure-notation: COc1cc2c(cc1C(/C=C/c1ccc(C(=O)O)cc1)=N\O)C(C)(C)CCC2(C)C
target-under-test: RARα (Homo sapiens, UniProt P10276)
EC50: > 1000 nM

Now consider the entry below.
Field EC50 (entry CC1(C)CCSc2ccc(C(/C=C/c3ccc(C(=O)O)cc3F)=N\O)cc21 ) reads > 1000 nM

* * *

Target sequence: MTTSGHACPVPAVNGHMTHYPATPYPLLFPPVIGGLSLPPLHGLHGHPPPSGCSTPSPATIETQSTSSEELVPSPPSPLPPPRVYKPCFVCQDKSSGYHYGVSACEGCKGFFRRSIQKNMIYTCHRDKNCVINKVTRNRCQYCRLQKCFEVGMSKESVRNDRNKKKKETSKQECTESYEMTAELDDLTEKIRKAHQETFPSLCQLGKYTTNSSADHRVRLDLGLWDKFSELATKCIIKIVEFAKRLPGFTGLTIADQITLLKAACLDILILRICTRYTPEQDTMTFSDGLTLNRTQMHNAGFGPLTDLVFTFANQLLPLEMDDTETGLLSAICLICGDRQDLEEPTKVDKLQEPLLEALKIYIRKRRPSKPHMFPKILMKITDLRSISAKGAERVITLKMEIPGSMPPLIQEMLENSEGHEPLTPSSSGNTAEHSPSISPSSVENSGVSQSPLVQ
measured-metric: Ki (µM)

1 = CC1(C)CCCc2ccc(C(C=Cc3ccc(C(=O)O)cc3)=NO)cc21 [drawing 14]
2 = CC1(C)CCSc2ccc(C(/C=C/c3ccc(C(=O)O)cc3F)=N/O)cc21
3 = CC1(C)CCSc2ccc(C(C=Cc3ccc(C(=O)O)cc3)=NO)cc21 [drawing 20]
Sort the entries above by Ki, largest first. Could you list the labels in the order requested?
2, 1, 3
